Experiment: Inhibition of lymphoid-specific tyrosine phosphatase pLyp35 mutant
pIC50: −log10 of the molar value.
METRIC NAME: pIC50

>>> recorded_result("O=C(CCCn1cc(-c2c(-c3ccccc3)oc3cc(O)c(C(=O)O)cc23)nn1)Nc1cccc2ccccc12")
4.32

###

Target chain: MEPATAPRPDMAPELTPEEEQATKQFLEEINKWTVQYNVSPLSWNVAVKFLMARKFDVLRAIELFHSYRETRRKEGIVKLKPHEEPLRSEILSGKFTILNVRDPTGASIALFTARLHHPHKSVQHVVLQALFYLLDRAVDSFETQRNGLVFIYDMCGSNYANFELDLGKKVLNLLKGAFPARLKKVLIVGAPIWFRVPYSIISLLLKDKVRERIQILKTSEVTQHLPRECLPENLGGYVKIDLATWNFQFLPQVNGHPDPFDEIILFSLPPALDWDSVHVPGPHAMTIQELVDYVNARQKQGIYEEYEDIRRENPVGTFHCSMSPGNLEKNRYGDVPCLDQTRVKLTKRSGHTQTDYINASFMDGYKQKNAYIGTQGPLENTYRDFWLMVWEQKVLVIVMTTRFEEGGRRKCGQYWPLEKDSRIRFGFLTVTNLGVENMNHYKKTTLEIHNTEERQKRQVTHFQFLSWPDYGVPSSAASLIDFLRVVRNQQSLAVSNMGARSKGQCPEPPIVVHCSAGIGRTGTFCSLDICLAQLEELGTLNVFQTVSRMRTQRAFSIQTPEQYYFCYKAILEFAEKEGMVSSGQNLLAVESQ
METRIC NAME: IC50 (µM)

>>> recorded_result("O=C(CCCn1cc(-c2c(-c3ccccc3)oc3cc(O)c(C(=O)O)cc23)nn1)Nc1cccc2ccccc12")
31.8
